# measured-on: TcFPPS (Trypanosoma cruzi, UniProt Q95WL3)
# Sequence (Q95WL3 1-362): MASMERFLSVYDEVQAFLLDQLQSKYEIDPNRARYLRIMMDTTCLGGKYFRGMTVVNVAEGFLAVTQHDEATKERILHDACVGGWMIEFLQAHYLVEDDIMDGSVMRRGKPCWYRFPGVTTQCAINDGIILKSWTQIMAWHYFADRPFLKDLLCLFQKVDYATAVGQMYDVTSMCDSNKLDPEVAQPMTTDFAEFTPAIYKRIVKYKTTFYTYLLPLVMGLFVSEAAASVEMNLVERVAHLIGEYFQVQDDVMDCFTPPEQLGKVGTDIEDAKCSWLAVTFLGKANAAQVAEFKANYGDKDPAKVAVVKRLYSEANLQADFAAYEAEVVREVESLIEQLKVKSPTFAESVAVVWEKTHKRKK
pIC50: −log10 of the molar value.
measured-metric: pIC50

>>> df
                                   compound  value_reported
0  CC[n+]1ccn(CC(O)(P(=O)([O-])O)P(=O)(O)O)c1 (centres unmarked)            6.96
1  CCCCCCC[n+]1ccn(CC(O)(P(=O)([O-])O)P(=O)(O)O)c1 (centres unmarked)            7.05
2  CCCCCCCCCCCC[n+]1ccn(CC(P(=O)([O-])O)P(=O)(O)O)c1 (centres unmarked)            6.05
3  CCC[n+]1ccn(CC(O)(P(=O)([O-])O)P(=O)(O)O)c1 (centres unmarked)            6.48
4  C[n+]1ccn(CC(P(=O)([O-])O)P(=O)(O)O)c1 (centres unmarked)            6.43
